Assay: Half-life in Sprague-Dawley rat at 25 mg/kg, po measured after 12 hrs by LC-MS/MS analysis
Format: ADME, organism-based
Conditions: in vivo
value-kind: half-life (min)
Write it as a number; the unit min goes unstated.

In plain terms, O=C1CCC(Nc2cccc(N3CCN(CC4CCN(CC(=O)N5CCC(NC(=O)c6n[nH]cc6NC(=O)c6c(Cl)cccc6Cl)CC5)CC4)CC3)c2)C(=O)N1 (stereo unspecified) has a documented half-life of 324

###

We begin with a simple list: items and their reported log10(microsomal CLint).
Assay: Metabolic stability in human liver microsomes assessed as intrinsic clearance
Type: ADME, Microsome
Conditions: liver microsomes, read-out: CLH
Would you kindly interpret these values as log10 of microsomal CLint expressed in µL/min/mg?

Answered examples (4):
compound="O=C1CCC(Nc2cccc(N3CCN(CC4CCN(CC(=O)N5CCC(NC(=O)c6n[nH]cc6NC(=O)c6c(Cl)cccc6Cl)CC5)CC4)CC3)c2)C(=O)N1 (stereo not given)" reported_value=1.04
compound="O=C1CCC(Nc2ccc(N3CCN(CC4CCN(CC(=O)N5CCC(NC(=O)c6n[nH]cc6NC(=O)c6c(Cl)cccc6Cl)CC5)CC4)CC3)cc2)C(=O)N1 (stereo not given)" reported_value=1.41
compound="O=C1CCC(N2C(=O)c3ccc(N4CCN(CC5CCN(CC(=O)N6CCC(NC(=O)c7n[nH]cc7NC(=O)c7c(Cl)cccc7Cl)CC6)CC5)CC4)cc3C2=O)C(=O)N1 (stereo not given)" reported_value=1.66
compound="O=C1CCC(N2C(=O)c3ccc(N4CCN(CC5CCN(C(=O)CN6CCC(NC(=O)c7n[nH]cc7NC(=O)c7c(Cl)cccc7Cl)CC6)CC5)CC4)cc3C2=O)C(=O)N1 (stereo not given)" reported_value=2.35

Now look at this one.
In plain terms, O=C1CCC(N2C(=O)c3ccc(N4CCN(CC(=O)N5CCC(CN6CCC(NC(=O)c7n[nH]cc7NC(=O)c7c(Cl)cccc7Cl)CC6)CC5)CC4)cc3C2=O)C(=O)N1 (stereo not given) has a documented log10(microsomal CLint) of 2.47
